- System: Clostridium sporogenes DSM 1664
- protocol.description: fold change of Tryptamine concentration vs plate DMSO controls (fold change (ratio)); higher = more amine produced, active = hit call of the paper (significant change in both replicates, either direction)
- condition.label: incubation time: 27 h, anaerobic, 37 °C
Structures can show the parent of a compound that is named as a salt.
Exercise: for every item that follows, state its recorded fold change of Tryptamine concentration.

// below: answered compounds
CN(CCCCCCCCCCN(C)C(=O)Oc1cccc([N+](C)(C)C)c1)C(=O)Oc1cccc([N+](C)(C)C)c1 [Demecarium bromide] (20 µM)
0.871 (inactive)
C[C@H]1[C@H](OC(=O)CCC(=O)O)O[C@@H]2O[C@@]3(C)CC[C@H]4[C@H](C)CC[C@@H]1[C@@]24OO3 [Artesunate] (20 µM)
1.05 (inactive)

Next compound, please.
Task item: Lab request: please report fold change of Tryptamine concentration under test system Clostridium sporogenes DSM 1664 for COc1cccc(CCc2ccccc2OCC(CN(C)C)OC(=O)CCC(=O)O)c1 (stereo not drawn) [Sarpogrelate hydrochloride] (20 µM)
Reply: 0.989 (inactive)

* * *

Exercise: for every item that follows, state its recorded fold change of Histamine concentration.
- Test system: Klebsiella aerogenes DSM 30053
- protocol.description: fold change of Histamine concentration vs plate DMSO controls (fold change (ratio)); higher = more amine produced, active = hit call of the paper (significant change in both replicates, either direction)
- condition.label: incubation time: 27 h, anaerobic, 37 °C
Counter-ions that a name gives are not always drawn.

// below: answered compounds
NS(=O)(=O)c1cc(C(=O)NN2C[C@@H]3[C@H]4CC[C@H](C4)[C@@H]3C2)ccc1Cl [Tripamide] (20 µM)
1.01 (inactive)
Clc1cc(Cl)c(OCC#CI)cc1Cl [Haloprogin] (20 µM)
1.01 (inactive)
CC(C)Oc1ccc2c(=O)c(-c3ccccc3)coc2c1 [Ipriflavone] (20 µM)
1 (inactive)

Below are some compounds; for each one, tell me its fold change of Histamine concentration.
1. C=CCOc1ccccc1OCC(O)CNC(C)C (stereo not drawn) [Oxprenolol hydrochloride] (20 µM)
2. CC(C)(C)NC[C@H](O)COc1ccccc1C1CCCC1 [Penbutolol sulfate] (20 µM)
3. COc1cc(C)nc(-n2nc(C)cc2OC)n1 [Epirizole] (20 µM)
4. C=CCSCC1Nc2cc(Cl)c(S(N)(=O)=O)cc2S(=O)(=O)N1 (stereo not drawn) [Althiazide] (20 µM)
5. COc1ccc2c(c1)c(CC(=O)O)c(C)n2C(=O)c1ccc(Cl)cc1 [Indomethacin] (20 µM)

Reply:
1. 1.02 (inactive)
2. 1.02 (inactive)
3. 1.02 (inactive)
4. 0.981 (inactive)
5. 0.997 (inactive)

* * *

- Test system: Ruminococcus gnavus DSM 108212
- protocol.description: fold change of 2-Phenylethylamine concentration vs plate DMSO controls (fold change (ratio)); higher = more amine produced, active = hit call of the paper (significant change in both replicates, either direction)
- condition.label: incubation time: 27 h, anaerobic, 37 °C
Where a name gives a salt, the structure may show the parent alone.
Exercise: for every item that follows, state its recorded fold change of 2-Phenylethylamine concentration.
Answers are plain numbers.

NCc1ccccc1CC(=O)N[C@@H]1C(=O)N2C(C(=O)O)=C(CSc3nnnn3CC(=O)O)CS[C@H]12 [Ceforanide] (20 µM)
0.0519

Below are some compounds; for each one, tell me its fold change of 2-Phenylethylamine concentration.
1. CC(C(=O)O)c1cccc(Oc2ccccc2)c1 (stereo not given) [Fenoprofen calcium salt dihydrate] (20 µM)
2. CN(C)CCOC1=Cc2ccccc2Sc2ccc(Cl)cc21 [Zotepine] (20 µM)
3. CC(=O)OCC(=O)[C@@]12OC3(CCCC3)O[C@@H]1C[C@H]1[C@@H]3CCC4=CC(=O)C=C[C@]4(C)[C@@]3(F)[C@@H](O)C[C@@]12C [Amcinonide] (20 µM)
4. CC(C[N+](C)(C)C)OC(N)=O (stereo not given) [Bethanechol chloride] (20 µM)
5. O=P(O)(O)C(O)(Cc1cccnc1)P(=O)(O)O [Risedronic acid monohydrate] (20 µM)

Reply:
[0.937, 0.924, 1.07, 1.01, 1.07]

Below are some compounds; for each one, tell me its fold change of 2-Phenylethylamine concentration.
1. CC#CCn1c(N2CCC[C@@H](N)C2)nc2c1c(=O)n(Cc1nc(C)c3ccccc3n1)c(=O)n2C [Linagliptin] (20 µM)
2. CCOc1ccc2c(c1)C(C)=CC(C)(C)N2 [Ethoxyquin] (20 µM)

Reply:
1. 0.997
2. 0.807

Below are some compounds; for each one, tell me its fold change of 2-Phenylethylamine concentration.
1. OCCN1CCN(CC/C=C2/c3ccccc3Sc3ccc(Cl)cc32)CC1 [Zuclopenthixol dihydrochloride] (20 µM)
2. CC(=O)Oc1ccccc1C(=O)Nc1ncc([N+](=O)[O-])s1 [Nitazoxanide] (20 µM)

Reply:
1: 0.947; 2: 0.0405
